Reference for the values: paper PMC8084935

target: MtYcaO (YcaO from Methanothermobacter sp. CaT2), MBP-His tag cut in the assay mixture (Methanothermobacter sp. CaT2); assay: fluorescence polarisation
observed.property: EC50 (µM)
Just the number please, in µM, no unit attached.

Prompt: So what does the record say about EC50 for MtTfuA-M84A (enzyme) MHGKKIIIFTGPSLSHTEASSILEAEYRPPVRRGDIQEAMKENPDIIGIIDGVFHQSPAVGHREIIDAIRRGVKVVGGASAGALRASELSDLGMVGVGRIFRSYLEGEIESDDDVAVAFNPETLEPLSDSLVSIEFNLKRALRRGVIREDDFRKLMNTARNLFYPLRNYRRILHESGIPDDVKESLRSFLESEGRDLKREDALEVIRHIKRLAYTE ?
Completion: 3.2
